- tested on: NRAS G12D C118S (Homo sapiens (Human), UniProt P01111, C118S/G12D)
- Sequence (P01111 whole entry G12D/C118S): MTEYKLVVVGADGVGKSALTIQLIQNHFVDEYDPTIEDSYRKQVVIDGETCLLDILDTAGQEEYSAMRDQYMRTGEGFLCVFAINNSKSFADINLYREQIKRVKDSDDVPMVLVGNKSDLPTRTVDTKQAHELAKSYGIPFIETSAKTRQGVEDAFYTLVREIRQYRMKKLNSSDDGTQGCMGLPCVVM
- method description: NRas G12D Surface Plasmon Resonance (SPR) binding assay
- condition notes: Avi-tagged biotinylated NRAS G12D C118S on streptavidin chip, 25° C., 1:1 kinetic or steady-state fit
pKd: −log10 of the molar value.
Short version: pKd at least 7 is condition met, less is condition not met.

For orientation, consider the following solved cases.
> print(dat)
                                   compound                                 tested.on           category
1  C#Cc1c(F)ccc2cc(O)cc(-c3ncc4c([C@H]5[C@@H]6CNC[C@@H]65)cn(C5CC5)c4c3F)c12  NRAS G12D C118S (Homo sapiens (Human), UniProt P01111, C118S/G12D)      condition met
2  C#Cc1c(F)ccc2cc(O)cc(-c3ncc4c([C@H]5[C@@H]6CNC[C@@H]65)nn(C5CC5)c4c3F)c12  NRAS G12D C118S (Homo sapiens (Human), UniProt P01111, C118S/G12D)      condition met
3  C#Cc1c(F)ccc2cc(O)cc(-c3ncc4c(c(C)cn4C4CC5CCC4CN5)c3F)c12 (stereo not drawn)  NRAS G12D C118S (Homo sapiens (Human), UniProt P01111, C118S/G12D)  condition not met
4  C#Cc1c(F)ccc2cc(O)cc(-c3ncc4c(C5[C@H]6CNC[C@@H]56)cn(CCO)c4c3F)c12 (stereo partly drawn)  NRAS G12D C118S (Homo sapiens (Human), UniProt P01111, C118S/G12D)  condition not met
5  C#Cc1c(F)ccc2cc(O)cc(-c3ncc4c(N5CC6CC(C5)N6)nn(C)c4c3F)c12  NRAS G12D C118S (Homo sapiens (Human), UniProt P01111, C118S/G12D)  condition not met
6  C#Cc1c(F)ccc2cc(O)cc(-c3nc(OC4CNC4)c4c([C@H]5[C@@H]6CNC[C@@H]65)nn(C5CC5)c4c3F)c12  NRAS G12D C118S (Homo sapiens (Human), UniProt P01111, C118S/G12D)  condition not met
7  C#Cc1c(F)ccc2cc(O)cc(-c3ncc4c(N5C[C@@H]6CC[C@H]5CN6)nn(C)c4c3F)c12  NRAS G12D C118S (Homo sapiens (Human), UniProt P01111, C118S/G12D)      condition met
8  C#Cc1c(F)ccc2cc(O)cc(-c3ncc4c(NCC5(N(C)C)CCC5)nn(CC)c4c3F)c12  NRAS G12D C118S (Homo sapiens (Human), UniProt P01111, C118S/G12D)  condition not met

Ask: State whether the measured pKd reaches 7, counting equality as reaching it, for C#Cc1c(F)ccc2cc(O)cc(-c3ncc4c(N5CC6CCC(C5)N6)n[nH]c4c3F)c12
Reply: condition not met

Ask: State whether the measured pKd reaches 7, counting equality as reaching it, for C#Cc1c(F)ccc2cc(O)cc(-c3ncc4c([C@H]5[C@@H]6CNC(C(=O)OC)[C@@H]65)nn(C)c4c3F)c12 (stereo partly drawn)
Reply: condition not met

Ask: State whether the measured pKd reaches 7, counting equality as reaching it, for C#Cc1c(F)ccc2cc(O)cc(-c3ncc4c([C@H]5[C@@H]6CNC[C@@H]65)nn([C@@H]5C[C@@H]5C)c4c3F)c12
Reply: condition not met

###

- tested on: NRAS G12D C118S (Homo sapiens (Human), UniProt P01111, C118S/G12D)
- method description: NRas G12D Surface Plasmon Resonance (SPR) binding assay
- condition notes: Avi-tagged biotinylated NRAS G12D C118S on streptavidin chip, 25° C., 1:1 kinetic or steady-state fit
reported property: pKd
Numbers only, as −log10 of the molar value.

Give pKd for all compounds that follow.
1. C#Cc1c(F)ccc2cc(O)cc(-c3nc(OCC)c4c([C@H]5[C@@H]6CNC[C@@H]65)nn(C5CC5)c4c3F)c12 [Example 63]
2. C#Cc1c(F)ccc2cc(O)cc(-c3ccc4c([C@H]5[C@@H]6CNC[C@@H]65)nn(C)c4c3F)c12 [Example 27]
3. C#Cc1c(F)ccc2cc(O)cc(-c3ncc4c([C@H]5[C@@H]6CNC(CO)[C@@H]65)nn(C)c4c3F)c12 (stereo partly shown) [Example 97]
4. C#Cc1c(F)ccc2cc(O)cc(-c3nc(NC(C)C)c4c([C@H]5[C@@H]6CNC[C@@H]65)nn(C5CC5)c4c3F)c12 [Example 77]
5. C#Cc1c(F)ccc2cc(O)cc(-c3nc(CC)c4c([C@H]5[C@@H]6CNC[C@@H]65)nn(C5CC5)c4c3F)c12 [Example 72]
6. C#Cc1c(F)ccc2cc(O)cc(-c3nc(OC4CCC4)c4c([C@H]5[C@@H]6CNC[C@@H]65)nn(C5CC5)c4c3F)c12 [Example 64]
7. C#Cc1c(F)ccc2cc(O)cc(-c3ncc4c(N5CC6CCC(C5)N6)nn(CCC)c4c3F)c12 [Example 14]
8. C#Cc1c(F)ccc2cc(O)cc(-c3nc(Nc4ccccc4)c4c([C@H]5[C@@H]6CNC[C@@H]65)nn(C5CC5)c4c3F)c12 [Example 83]

Reply:
8.08
5.50
6.72
7.75
9.23
7.61
5.36
7.31

###

- tested on: NRAS G12D C118S (Homo sapiens (Human), UniProt P01111, C118S/G12D)
- method description: NRas G12D Surface Plasmon Resonance (SPR) binding assay
- condition notes: Avi-tagged biotinylated NRAS G12D C118S on streptavidin chip, 25° C., 1:1 kinetic or steady-state fit
pKd: −log10 of the molar value.
Short version: pKd at least 7 is yes (1), less is no (0).

For orientation, consider the following solved cases.
> print(dat)
                                   compound  category
1  C#Cc1c(F)ccc2cc(O)cc(-c3cc4[nH]nc(N5CC6CCC(C5)N6)c4cn3)c12    no (0)
2  C#Cc1c(F)ccc2cc(O)cc(-c3ncc4c(N[C@H]5[C@@H]6CNC[C@@H]65)nn(CC)c4c3F)c12    no (0)
3  C#Cc1c(F)ccc2cc(N)cc(-c3nc(CC)c4c([C@H]5[C@@H]6CNC[C@@H]65)nn(C5CC5)c4c3F)c12   yes (1)

Next, consider the following compound.
Ask: State whether the measured pKd reaches 7, counting equality as reaching it, for C#Cc1c(F)ccc2cc(O)cc(-c3ncc4c([C@H]5[C@@H]6CNC[C@@H]65)c(C#N)n(C)c4c3F)c12
Reply: no (0)

###

Kindly state pKd for each of the entries shown.
- tested on: NRAS G12D C118S (Homo sapiens (Human), UniProt P01111, C118S/G12D)
- method description: NRas G12D Surface Plasmon Resonance (SPR) binding assay
- condition notes: Avi-tagged biotinylated NRAS G12D C118S on streptavidin chip, 25° C., 1:1 kinetic or steady-state fit
Answers are plain numbers, as −log10 of the molar value.

For orientation, consider the following solved cases.
> print(dat)
                                   compound  reported.property  test.result
1  C#Cc1c(F)ccc2cc(O)cc(-c3nc(OC4CCCC4)c4c([C@H]5[C@@H]6CNC[C@@H]65)nn(C5CC5)c4c3F)c12 [Example 65]                pKd         6.90
2  C#Cc1c(F)ccc2cc(O)cc(-c3nc(OC4CC(F)(F)C4)c4c([C@H]5[C@@H]6CNC[C@@H]65)nn(C5CC5)c4c3F)c12 [Example 68]                pKd         6.25
3  C#Cc1c(F)ccc2cc(O)cc(-c3ncc4c([C@H]5[C@@H]6CNC[C@@H]65)nn(C5C[C@@H]5C)c4c3F)c12 (some centres unmarked) [Example 46]                pKd         7.22

Give pKd for all compounds that follow.
1. C#Cc1c(F)ccc2cc(O)cc(-c3ncc4c([C@H]5[C@@H]6CNC[C@@H]65)c(CO)n(C)c4c3F)c12 [Example 23]
2. C#Cc1c(F)ccc2cc(O)cc(-c3cc4c(cn3)c(N3CC5CCC(C3)N5)nn4CCC)c12 [Example 7]

Reply:
1. 4.86
2. 5.32

###

- tested on: NRAS G12D C118S (Homo sapiens (Human), UniProt P01111, C118S/G12D)
- method description: NRas G12D Surface Plasmon Resonance (SPR) binding assay
- condition notes: Avi-tagged biotinylated NRAS G12D C118S on streptavidin chip, 25° C., 1:1 kinetic or steady-state fit
Kindly state pKd for each of the entries shown.
Give bare numbers, as −log10 of the molar value.

For orientation, consider the following solved cases.
> print(dat)
                                   compound  test.result
1  C#Cc1c(F)ccc2cc(O)cc(-c3nc(OC)c4c(N5C[C@@H]6CC[C@H]5CN6)nn(C5CC5)c4c3F)c12 [Example 91]         6.84
2  C#Cc1c(F)ccc2cc(O)cc(-c3ncc4c(N5C[C@@H]6CC[C@H]5CN6)cn(C5CC5)c4c3F)c12 [Example 86]         6.82
3  C#Cc1c(F)ccc2cc(O)cc(-c3ncc4c(N5CC6CCC5CN6)nn(C5CC5)c4c3F)c12 (stereo not drawn) [Example 105]         7.73

Give pKd for all compounds that follow.
1. C#Cc1c(F)ccc2cc(O)cc(-c3nc(OC)c4c([C@H]5[C@@H]6CNC[C@@H]65)nn(C5CC5)c4c3F)c12 [Example 61]
2. C#Cc1c(F)ccc2cc(O)cc(-c3nc(OCC(F)(F)F)c4c([C@H]5[C@@H]6CNC[C@@H]65)nn(C5CC5)c4c3F)c12 [Example 67]
3. C#Cc1c(F)ccc2cc(O)cc(-c3nc(CC(C)C)c4c([C@H]5[C@@H]6CNC[C@@H]65)nn(C5CC5)c4c3F)c12 [Example 73]
4. C#Cc1c(F)ccc2cc(O)cc(-c3ncc4c(N5CC6CCC5CN6)nn(C)c4c3F)c12 (stereo not drawn) [Example 26]
5. C#Cc1c(F)ccc2cc(O)cc(-c3ncc4c(C5=CC6CCC5CN6)nn(C)c4c3F)c12 (stereo not drawn) [Example 42]
6. C#Cc1c(F)ccc2cc(O)cc(-c3ncc4c(N5CC6CCC(C5)N6)nn(C5CCC5)c4c3F)c12 [Example 16]
7. C#Cc1c(F)ccc2cc(O)cc(-c3ncc4c(C5C6CNCC65)nn(C5CC5(F)F)c4c3F)c12 (stereo not drawn) [Example 49]

Reply:
1: 7.80; 2: 6.94; 3: 6.67; 4: 7.13; 5: 5.53; 6: 5.25; 7: 7.09

Give pKd for all compounds that follow.
1. C#CCn1nc([C@H]2[C@@H]3CNC[C@@H]32)c2cnc(-c3cc(O)cc4ccc(F)c(C#C)c34)c(F)c21 [Example 59]
2. C#Cc1c(F)ccc2cc(O)cc(-c3cc4c(cn3)c(N3CC5CCC(C3)N5)nn4CC)c12 [Example 6]

Reply:
1: 5.95; 2: 5.09
